Reported Kis (ES + I ⇌ ESI) values are given for each entry in this list.
molecular target: M. tuberculosis riboflavin synthase (recombinant) (Mycobacterium tuberculosis); assay: Kinetic assay of riboflavin synthase inhibitors, M. tuberculosis enzyme; type: biochemical; details: substrate 3 varied; Tris·HCl pH 7.0
Sequence (P9WK35 whole entry): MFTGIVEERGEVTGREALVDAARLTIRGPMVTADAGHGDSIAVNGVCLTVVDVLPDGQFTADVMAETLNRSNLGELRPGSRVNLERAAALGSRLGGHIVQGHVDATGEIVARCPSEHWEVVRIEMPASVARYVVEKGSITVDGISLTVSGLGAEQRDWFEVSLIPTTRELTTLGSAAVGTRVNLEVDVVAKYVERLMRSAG
READOUT KIND: Kis (ES + I ⇌ ESI)

{"columns": ["COMPOUND", "DATA VALUE"],
 "data": [
  ["C=C(C)C(=O)Nc1c(NC[C@H](O)[C@H](O)[C@H](O)CO)[nH]c(=O)[nH]c1=O [Compound 56]", "35 ± 14 µM"],
  ["COC(=O)C(=O)Nc1c(OC[C@H](O)[C@H](O)[C@H](O)CO)[nH]c(=O)[nH]c1=O [Compound 37]", "868 ± 305 µM"],
  ["C=C(C)C(=O)Nc1c(OC[C@H](O)[C@H](O)[C@H](O)CO)[nH]c(=O)[nH]c1=O [Compound 46]", ">1000 µM"],
  ["CCC(=O)Nc1c(OC[C@H](O)[C@H](O)[C@H](O)CO)[nH]c(=O)[nH]c1=O [Compound 43]", ">1000 µM"],
  ["O=c1[nH]c(OC[C@H](O)[C@H](O)[C@H](O)CO)c([N+](=O)[O-])c(=O)[nH]1 [Compound 22]", "26 ± 6 µM"],
  ["O=C(CC(F)(F)F)Nc1c(NC[C@H](O)[C@H](O)[C@H](O)CO)[nH]c(=O)[nH]c1=O [Compound 66]", "> 1000 µM"],
  ["CCC(=O)Nc1c(SC[C@H](O)[C@H](O)[C@H](O)CO)[nH]c(=O)[nH]c1=O [Compound 49]", "> 1000 µM"]
]}

----------
biological target: M. tuberculosis lumazine synthase (recombinant homopentameric) (Mycobacterium tuberculosis); format: biochemical

{"columns": ["COMPOUND", "Mechanism of inhibition"],
 "data": [
  ["Nc1c(OC[C@@H](O)[C@H](O)[C@@H](O)CO)[nH]c(=O)[nH]c1=O", "Uncompetitive"],
  ["CCC(=O)Nc1c(OC[C@H](O)[C@H](O)[C@H](O)CO)[nH]c(=O)[nH]c1=O", "Uncompetitive"],
  ["C=C(C)C(=O)Nc1c(Cl)[nH]c(=O)[nH]c1=O", "Uncompetitive"],
  ["C=C(C)C(=O)Nc1c(SC[C@H](O)[C@H](O)[C@H](O)CO)[nH]c(=O)[nH]c1=O", "Competitive"],
  ["CC(C)C(=O)Nc1c(OC[C@H](O)[C@H](O)[C@H](O)CO)[nH]c(=O)[nH]c1=O", "Uncompetitive"],
  ["CC(Cl)C(=O)Nc1c(NC[C@H](O)[C@H](O)[C@H](O)CO)[nH]c(=O)[nH]c1=O (some centres unmarked)", "Competitive"],
  ["O=c1[nH]c(OC[C@H](O)[C@H](O)[C@H](O)CO)c([N+](=O)[O-])c(=O)[nH]1", "Competitive"]
]}

----------
molecular target: M. tuberculosis lumazine synthase (recombinant homopentameric) (Mycobacterium tuberculosis, UniProt P9WHE9); assay type: biochemical
Sequence (P9WHE9 whole entry): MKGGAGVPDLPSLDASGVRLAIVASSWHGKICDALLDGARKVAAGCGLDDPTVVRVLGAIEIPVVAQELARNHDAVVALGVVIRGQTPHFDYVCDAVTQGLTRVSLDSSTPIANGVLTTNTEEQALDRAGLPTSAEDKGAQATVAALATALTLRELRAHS
READOUT KIND: Mechanism of inhibition

{"columns": ["COMPOUND", "READOUT KIND", "DATA VALUE"],
 "data": [
  ["C=C(C)C(=O)Nc1c(OC[C@H](O)[C@H](O)[C@H](O)CO)[nH]c(=O)[nH]c1=O [Compound 46]", "Mechanism of inhibition", "Uncompetitive"],
  ["COC(=O)C(=O)Nc1c(OC[C@H](O)[C@H](O)[C@H](O)CO)[nH]c(=O)[nH]c1=O [Compound 37]", "Mechanism of inhibition", "Competitive"],
  ["CCC(=O)Nc1c(SC[C@H](O)[C@H](O)[C@H](O)CO)[nH]c(=O)[nH]c1=O [Compound 49]", "Mechanism of inhibition", "Competitive"],
  ["CCOC(=O)C(=O)Nc1c(OC[C@H](O)[C@H](O)[C@H](O)CO)[nH]c(=O)[nH]c1=O [Compound 36]", "Mechanism of inhibition", "Uncompetitive"],
  ["C=C(C)C(=O)Nc1c(NC[C@H](O)[C@H](O)[C@H](O)CO)[nH]c(=O)[nH]c1=O [Compound 56]", "Mechanism of inhibition", "Uncompetitive"],
  ["CC1(O)C(=O)Nc2c([nH]c(=O)[nH]c2=O)N1C[C@H](O)[C@H](O)[C@H](O)CO (stereo partly shown) [Compound 69]", "Mechanism of inhibition", "Competitive"]
]}

----------
target: S. pombe lumazine synthase (recombinant homopentameric) (Schizosaccharomyces pombe); experiment: Kinetic assay of lumazine synthase inhibitors, S. pombe enzyme; format: biochemical
Sequence (Q9UUB1 whole entry): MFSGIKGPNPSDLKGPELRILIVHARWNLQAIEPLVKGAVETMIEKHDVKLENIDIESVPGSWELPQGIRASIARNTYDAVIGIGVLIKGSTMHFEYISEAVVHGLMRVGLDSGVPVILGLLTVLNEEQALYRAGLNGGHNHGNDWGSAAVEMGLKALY
READOUT KIND: Mechanism of inhibition

{"columns": ["COMPOUND", "DATA VALUE"],
 "data": [
  ["O=c1[nH]c(OC[C@H](O)[C@H](O)[C@H](O)CO)c([N+](=O)[O-])c(=O)[nH]1", "Partial"],
  ["COC(=O)C(=O)Nc1c(OC[C@H](O)[C@H](O)[C@H](O)CO)[nH]c(=O)[nH]c1=O", "Partial"],
  ["Nc1c(OC[C@@H](O)[C@H](O)[C@@H](O)CO)[nH]c(=O)[nH]c1=O", "Partial"]
]}

----------
target: M. tuberculosis riboflavin synthase (recombinant) (Mycobacterium tuberculosis); experiment: Kinetic assay of riboflavin synthase inhibitors, M. tuberculosis enzyme; format: biochemical; conditions: substrate 3 varied; Tris·HCl pH 7.0
Measured Kcat (rate constant ES → E + P), listed per entry.
READOUT KIND: Kcat (rate constant ES → E + P) (m^−1)

{"columns": ["COMPOUND", "DATA VALUE"],
 "data": [
  ["COC(=O)C(=O)Nc1c(OC[C@H](O)[C@H](O)[C@H](O)CO)[nH]c(=O)[nH]c1=O [Compound 37]", 0.22],
  ["O=C(CC(F)(F)F)Nc1c(NC[C@H](O)[C@H](O)[C@H](O)CO)[nH]c(=O)[nH]c1=O [Compound 66]", 0.18],
  ["O=c1[nH]c(OC[C@H](O)[C@H](O)[C@H](O)CO)c([N+](=O)[O-])c(=O)[nH]1 [Compound 22]", 0.26],
  ["Nc1c(OC[C@@H](O)[C@H](O)[C@@H](O)CO)[nH]c(=O)[nH]c1=O [Compound 29]", 0.25],
  ["CCC(=O)Nc1c(SC[C@H](O)[C@H](O)[C@H](O)CO)[nH]c(=O)[nH]c1=O [Compound 49]", 0.76],
  ["CCOC(=O)C(=O)Nc1c(OC[C@H](O)[C@H](O)[C@H](O)CO)[nH]c(=O)[nH]c1=O [Compound 36]", 0.25],
  ["CC1(O)C(=O)Nc2c([nH]c(=O)[nH]c2=O)N1C[C@H](O)[C@H](O)[C@H](O)CO (stereo partly shown) [Compound 69]", 0.67]
]}

----------
Below, each entry is listed alongside its reported Kis (ES + I ⇌ ESI).
target: M. tuberculosis lumazine synthase (recombinant homopentameric) (Mycobacterium tuberculosis, UniProt P9WHE9); assay type: biochemical; settings: substrate 2 constant, substrate 1 varied; Tris·HCl pH 7.0

{"columns": ["COMPOUND", "MODIFIER SIGN", "Kis (ES + I ⇌ ESI) [µM]"],
 "data": [
  ["CC(C)C(=O)Nc1c(OC[C@H](O)[C@H](O)[C@H](O)CO)[nH]c(=O)[nH]c1=O", "=", 766],
  ["C=C(C)C(=O)Nc1c(NC[C@H](O)[C@H](O)[C@H](O)CO)[nH]c(=O)[nH]c1=O", ">", 1000],
  ["O=C(CCl)Nc1c(NC[C@H](O)[C@H](O)[C@H](O)CO)[nH]c(=O)[nH]c1=O", "=", 53],
  ["O=C(CC(F)(F)F)Nc1c(NC[C@H](O)[C@H](O)[C@H](O)CO)[nH]c(=O)[nH]c1=O", "=", 309],
  ["C=C(C)C(=O)Nc1c(Cl)[nH]c(=O)[nH]c1=O", ">", 1000],
  ["CCC(=O)Nc1c(SC[C@H](O)[C@H](O)[C@H](O)CO)[nH]c(=O)[nH]c1=O", "=", 128],
  ["CCOC(=O)C(=O)Nc1c(OC[C@H](O)[C@H](O)[C@H](O)CO)[nH]c(=O)[nH]c1=O", ">", 1000],
  ["Nc1c(OC[C@@H](O)[C@H](O)[C@@H](O)CO)[nH]c(=O)[nH]c1=O", ">", 1000],
  ["C=C(C)C(=O)Nc1c(OC[C@H](O)[C@H](O)[C@H](O)CO)[nH]c(=O)[nH]c1=O", ">", 1000]
]}

----------
target: E. coli riboflavin synthase (recombinant) (Escherichia coli); assay: Kinetic assay of riboflavin synthase inhibitors, E. coli enzyme; assay type: biochemical
Sequence (P0AFU8 whole entry): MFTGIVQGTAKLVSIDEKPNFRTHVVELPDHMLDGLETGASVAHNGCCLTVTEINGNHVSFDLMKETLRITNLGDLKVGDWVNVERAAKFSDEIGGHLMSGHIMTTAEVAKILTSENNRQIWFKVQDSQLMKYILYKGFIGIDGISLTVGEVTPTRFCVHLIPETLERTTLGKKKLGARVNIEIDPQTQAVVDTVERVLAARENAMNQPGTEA

{"columns": ["COMPOUND", "Mechanism of inhibition"],
 "data": [
  ["CCOC(=O)C(=O)Nc1c(OC[C@H](O)[C@H](O)[C@H](O)CO)[nH]c(=O)[nH]c1=O", "Uncompetitive"],
  ["COC(=O)C(=O)Nc1c(OC[C@H](O)[C@H](O)[C@H](O)CO)[nH]c(=O)[nH]c1=O", "Uncompetitive"],
  ["Nc1c(OC[C@@H](O)[C@H](O)[C@@H](O)CO)[nH]c(=O)[nH]c1=O", "Uncompetitive"]
]}
